# testedSystem: CYP1A1 (Mus musculus)
# Sequence (P30561 whole entry): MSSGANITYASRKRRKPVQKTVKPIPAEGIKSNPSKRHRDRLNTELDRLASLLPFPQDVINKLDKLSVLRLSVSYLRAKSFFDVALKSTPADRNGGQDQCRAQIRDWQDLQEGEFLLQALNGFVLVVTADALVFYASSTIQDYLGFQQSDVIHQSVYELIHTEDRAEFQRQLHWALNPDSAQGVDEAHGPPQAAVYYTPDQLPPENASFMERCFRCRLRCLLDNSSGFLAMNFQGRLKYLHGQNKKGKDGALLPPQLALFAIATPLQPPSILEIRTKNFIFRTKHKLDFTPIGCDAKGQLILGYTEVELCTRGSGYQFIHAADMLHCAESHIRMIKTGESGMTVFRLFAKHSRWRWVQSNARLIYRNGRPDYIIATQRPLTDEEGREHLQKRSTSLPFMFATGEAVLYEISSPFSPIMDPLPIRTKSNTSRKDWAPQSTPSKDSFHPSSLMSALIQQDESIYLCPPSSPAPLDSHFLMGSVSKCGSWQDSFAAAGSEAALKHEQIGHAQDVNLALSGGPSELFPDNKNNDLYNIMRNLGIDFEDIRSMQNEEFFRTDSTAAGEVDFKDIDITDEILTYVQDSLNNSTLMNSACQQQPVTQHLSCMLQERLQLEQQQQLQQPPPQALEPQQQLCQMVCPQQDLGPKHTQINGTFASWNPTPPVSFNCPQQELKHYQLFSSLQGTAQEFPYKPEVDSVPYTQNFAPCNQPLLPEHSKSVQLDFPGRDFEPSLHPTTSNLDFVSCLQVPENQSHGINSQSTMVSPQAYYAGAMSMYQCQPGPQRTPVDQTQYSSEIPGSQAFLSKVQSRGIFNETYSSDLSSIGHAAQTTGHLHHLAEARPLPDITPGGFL
# assayNotes: Induction of Ah receptor in mouse Hepa-1c1c7 cells assessed as induction of CYP1A1 activity at 5 uM after 48 hrs by EROD assay relative to control
# Type: cell-based
# conditionDetails: probe ethoxyresorufin (EROD), read-out: FC
fold induction at 48 h, 5 µM listing for selected compounds.
Could you keep your reply to the number by itself?

                               recordsmiles                        metric  quantitativereadout
0   COc1cc(OC)c2c(c1)O/C(=C\c1ccccc1Cl)C2=O  fold induction at 48 h, 5 µM                 1.55
1            O=C1/C(=C/c2ccccc2O)Oc2ccccc21  fold induction at 48 h, 5 µM                  1.4
2  COc1cc(OC)c2c(c1)O/C(=C\c1cccc(Cl)c1)C2=O  fold induction at 48 h, 5 µM                 1.18

Turning now to a further compound:
Give the measured fold induction at 48 h, 5 µM of COc1cc(OC)c2c(c1)O/C(=C\c1cccc(F)c1)C2=O .
1.48
